assay: Oral activity: plasma level and half-life in mice after oral application; format: in vivo; settings: mouse, serum, 25 mg/kg, dose 25 mg per kg, potassium salt, read-out: Approximative serum half-life
observationType: half-life
# number then unit; no other words

Challenge: Look up half-life: COCSC1=C(C(=O)O)N2C(=O)[C@H]([C@@H](C)O)[C@H]2[C@H]1C [Ia]
Response given: 25 min
